inhibition values by entry
test system: diaphorase (Clostridium kluyveri); test: compounds blocking diaphorase resazurin reduction – biochemical, uHTS, resorufin fluorescence, counter-screen for diaphorase-coupled primary assays, primary screen (AID 1217);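 further: plate controls were DMSO with full reaction for no effect and wells lacking NADH for full effect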; conditions: diaphorase resazurin-to-resorufin fluorescence, NADH, 16 min; at 20 µM; stronger effect = higher value; bacterial (C. kluyveri) enzyme, not human
Screen size: about 190,000 compounds; about 1,300 (0.68%) were called active. Many of the other results were omitted from the sample, so actives are more common in it than they were.
Entry rule: numbers only, all in %.

Below are worked cases with known answers.
- CCn1cc(C(=O)N2CCN(Cc3ccc4c(c3)OCO4)CC2)c2cc(OC)c(OC)cc2c1=O: 10.4
- CCn1cc(C(=O)NCC2COc3ccccc3O2)c2cc(OC)c(OC)cc2c1=O (stereo unspecified): 7.1
- Cc1ccc(C)c(-n2cc(CN3CCN(C(=O)c4ncn[nH]4)CC3)c(-c3ccccc3)n2)c1: 13.7
- Cc1cccc(NC(=S)NCCc2ccc(F)cc2)c1C: 1.1
- Cc1ccnc(-n2sc3ccccc3c2=O)n1: 57
- Cc1nn2c3ccccc3nc2n(C)c1=O: 15.5
- Cc1nn(C)cc1C(=O)Nc1ccccc1Br: 13.9
- CN(CC#CCC(c1ccccc1)c1ccccc1)C(C)(C)C: 17.9

Reported inhibition for diaphorase (Clostridium kluyveri), given CCN(CC)c1ccc2oc(=O)c(C)nc2c1 ?
62.3

Reported inhibition for diaphorase (Clostridium kluyveri), given O=C(Nc1ccccc1-c1ccccc1)c1cccs1 ?
7.8

Reported inhibition for diaphorase (Clostridium kluyveri), given OC(C#CCN1CCOCC1)(c1ccccc1)C1CCCCC1 (stereo unspecified) ?
-10.7

Reported inhibition for diaphorase (Clostridium kluyveri), given CC(C)(C)N(CC#CCC(O)(c1ccccc1)C1CCCC1)CCO (stereo unspecified) ?
57.2

Reported inhibition for diaphorase (Clostridium kluyveri), given CC(=O)Nc1cccc(-c2nc3ccccc3s2)c1C ?
6.8

Reported inhibition for diaphorase (Clostridium kluyveri), given COC(=O)C1CCN(C(=O)c2cc(=O)[nH]c3ccccc23)CC1 ?
6.4

Reported inhibition for diaphorase (Clostridium kluyveri), given CCN(CC)c1ccc(/C=N/Nc2nc(C)cc(C)n2)c(O)c1 ?
42.2

Reported inhibition for diaphorase (Clostridium kluyveri), given CCOc1cc(/C=N/NC(=O)c2ccc(CSc3nncn3C)cc2)ccc1OCC(=O)N1CCOCC1 ?
-14
